# METHOD_DESCRIPTION: Pharmacokinetics study, subcutaneous apixaban injection (Embodiment 4)
# Assay type: in vivo, humans
# CONDITION_SUMMARY: human, plasma, sc, 2.5 mg, plasma drug concentration of apixaban, subject C-03; Time 0.25 h; 1 mL of 2.5 mg/mL apixaban injection subcutaneously
VALUE_TYPE: concentration at 0.25 h

(Q) Provide one value: measured concentration at 0.25 h of COc1ccc(-n2nc(C(N)=O)c3c2C(=O)N(c2ccc(N4CCCCC4=O)cc2)CC3)cc1 [apixaban, Apixaban]
(A) 5.13 ng/mL

###

# METHOD_DESCRIPTION: Pharmacokinetics study, subcutaneous apixaban injection (Embodiment 4)
# Type: in vivo, humans
# CONDITION_SUMMARY: human, plasma, sc, 2.5 mg, plasma drug concentration of apixaban, subject C-03; Time 6 h; 1 mL of 2.5 mg/mL apixaban injection subcutaneously
VALUE_TYPE: concentration at 6 h (ng/mL)
API: value field is a number in ng/mL; no unit string.

(Q) Using the record for `COc1ccc(-n2nc(C(N)=O)c3c2C(=O)N(c2ccc(N4CCCCC4=O)cc2)CC3)cc1` , state its measured concentration at 6 h.
(A) 35.5
